Data credit: ChEMBL document CHEMBL5236640

Target: Endothelial PAS domain-containing protein 1 (Homo sapiens)
Test: Agonist activity at human HIF-2alpha expressed in human 786-0 cells assessed as increase in VEGFA transcription level at 20 uM incubated for 24 hrs by RT-PCR analysis relative to control
Assay type: cell-based
Conditions: filed as agonist
assayEndpoint: Activity (%)
Give bare numbers, in %.

O=S1(=O)N=C(Nc2ccccc2)c2ccccc21 : 140
O=S1(=O)N=C(Nc2cc(F)cc(F)c2)c2ccccc21 : 146
FC(F)(F)c1cc(Nc2csc3ccccc23)cc(C(F)(F)F)c1 : 102
O=S1(=O)N=C(Nc2cc(C(F)(F)F)cc(C(F)(F)F)c2)c2ccccc21 : 161
CN(C1=NS(=O)(=O)c2ccccc21)c1cc(C(F)(F)F)cc(C(F)(F)F)c1 : 124
O=S1(=O)N=C(Nc2ccc(C(F)(F)F)cc2)c2ccccc21 : 85.7
O=S1(=O)N=C(Oc2cc(C(F)(F)F)cc(C(F)(F)F)c2)c2ccccc21 : 105
O=S1(=O)N=C(Nc2cc(C(F)(F)F)cc(C(F)(F)F)c2)c2cc(Br)ccc21 : 265
O=S1(=O)N=C(Nc2cccc(C(F)(F)F)c2)c2ccccc21 : 77.9

Attention now turns to another entry.
Task: Find the measured Activity: item [O-][s+]1cc(Nc2cc(C(F)(F)F)cc(C(F)(F)F)c2)c2ccccc21 (stereo not given) , target or system Endothelial PAS domain-containing protein 1 (Homo sapiens).
Output: 111

###

Assignment: determine reported ΔTm for the given molecules.
Molecular target: Aryl hydrocarbon receptor nuclear translocator/Endothelial PAS domain-containing protein 1 (Homo sapiens) (UniProt P27540+Q99814)
Sequence (P27540 2-789 limits assumed): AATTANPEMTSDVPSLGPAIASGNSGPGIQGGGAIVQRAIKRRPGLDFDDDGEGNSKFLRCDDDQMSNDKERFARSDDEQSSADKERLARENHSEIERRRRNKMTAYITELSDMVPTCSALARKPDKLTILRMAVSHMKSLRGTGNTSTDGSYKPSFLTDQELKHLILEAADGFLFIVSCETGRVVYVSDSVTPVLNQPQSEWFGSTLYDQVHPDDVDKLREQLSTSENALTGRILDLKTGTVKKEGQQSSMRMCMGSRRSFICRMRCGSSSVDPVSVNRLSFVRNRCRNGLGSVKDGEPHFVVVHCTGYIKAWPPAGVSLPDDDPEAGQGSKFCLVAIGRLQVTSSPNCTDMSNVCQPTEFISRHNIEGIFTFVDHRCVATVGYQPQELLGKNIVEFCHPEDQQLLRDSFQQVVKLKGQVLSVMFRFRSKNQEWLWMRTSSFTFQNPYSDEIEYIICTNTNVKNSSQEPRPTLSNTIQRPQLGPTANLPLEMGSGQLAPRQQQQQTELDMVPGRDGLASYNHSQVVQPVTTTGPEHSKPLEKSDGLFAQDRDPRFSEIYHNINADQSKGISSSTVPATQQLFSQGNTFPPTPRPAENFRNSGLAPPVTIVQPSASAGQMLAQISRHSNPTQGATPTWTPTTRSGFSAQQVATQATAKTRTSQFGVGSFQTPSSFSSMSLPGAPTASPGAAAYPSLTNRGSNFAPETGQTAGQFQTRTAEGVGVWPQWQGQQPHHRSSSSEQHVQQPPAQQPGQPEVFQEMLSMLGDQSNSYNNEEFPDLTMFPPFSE
Sequence (Q99814 whole entry partner, the tested form may be a part): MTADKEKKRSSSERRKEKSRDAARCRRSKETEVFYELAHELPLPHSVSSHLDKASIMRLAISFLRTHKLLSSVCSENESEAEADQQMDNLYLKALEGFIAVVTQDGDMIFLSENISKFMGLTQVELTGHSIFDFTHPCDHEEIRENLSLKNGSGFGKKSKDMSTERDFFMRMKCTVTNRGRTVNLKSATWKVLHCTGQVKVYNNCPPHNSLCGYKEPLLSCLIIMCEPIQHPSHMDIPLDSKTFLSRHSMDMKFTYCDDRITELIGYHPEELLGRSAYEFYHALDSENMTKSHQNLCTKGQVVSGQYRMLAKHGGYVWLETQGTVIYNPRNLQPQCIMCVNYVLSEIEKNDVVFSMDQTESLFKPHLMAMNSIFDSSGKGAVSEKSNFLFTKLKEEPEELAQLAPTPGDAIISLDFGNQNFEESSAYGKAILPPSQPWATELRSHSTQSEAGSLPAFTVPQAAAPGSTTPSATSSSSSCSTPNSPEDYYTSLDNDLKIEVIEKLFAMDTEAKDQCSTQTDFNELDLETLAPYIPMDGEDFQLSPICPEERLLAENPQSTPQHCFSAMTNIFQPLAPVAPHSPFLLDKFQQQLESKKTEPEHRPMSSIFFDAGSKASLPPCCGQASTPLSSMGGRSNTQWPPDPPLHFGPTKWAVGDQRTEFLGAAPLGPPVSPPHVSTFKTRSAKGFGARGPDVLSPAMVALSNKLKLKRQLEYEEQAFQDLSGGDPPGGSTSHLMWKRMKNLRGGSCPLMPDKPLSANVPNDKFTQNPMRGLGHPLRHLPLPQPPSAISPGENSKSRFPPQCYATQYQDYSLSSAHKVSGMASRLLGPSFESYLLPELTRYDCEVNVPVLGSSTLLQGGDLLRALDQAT
Conditions: filed as agonist, dose 10.0 µM
Numbers only, in °C.

The cases that follow already have their ΔTm on record.
N#Cc1cc(NC2=NS(=O)(=O)c3ccccc32)cc(C(F)(F)F)c1 : 0.96
COC(=O)c1cc(C#N)cc(NC2=NS(=O)(=O)c3ccccc32)c1 : 1.28
O=S1(=O)N=C(Nc2ccc(F)c(F)c2)c2ccccc21 : 0.29
O=S1(=O)N=C(Nc2ccccc2)c2ccccc21 : 0.02
O=S1(=O)N=C(Nc2cc(C(F)(F)F)cc(C(F)(F)F)c2)c2ccccc21 : 0.89

Attention now turns to another entry.
Task: Please look up its ΔTm: O=S1(=O)N=C(Oc2cc(C(F)(F)F)cc(C(F)(F)F)c2)c2ccccc21
Output: 0.07

###

Target: Endothelial PAS domain-containing protein 1 (Homo sapiens)
Experiment: Agonist activity at human HIF-2alpha expressed in human 786-0 cells assessed as increase in PGK1 transcription level at 20 uM incubated for 24 hrs by RT-PCR analysis relative to control
Assay type: cell-based
Conditions: filed as agonist
Assignment: determine reported Activity for the given compounds.
One number for each entry, in %.

The cases that follow already have their Activity on record.
O=S1(=O)N=C(Nc2cc(C(F)(F)F)cc(C(F)(F)F)c2)c2ccccc21 : 55
CN(C1=NS(=O)(=O)c2ccccc21)c1cc(C(F)(F)F)cc(C(F)(F)F)c1 : 97
O=S1(=O)N=C(Nc2cc(C(F)(F)F)cc(C(F)(F)F)c2)c2cc(Br)ccc21 : 117

For each of the compounds below, note its Activity.
1. FC(F)(F)c1cc(Nc2csc3ccccc23)cc(C(F)(F)F)c1
2. O=S1(=O)N=C(Nc2cc(F)cc(F)c2)c2ccccc21
3. [O-][s+]1cc(Nc2cc(C(F)(F)F)cc(C(F)(F)F)c2)c2ccccc21 (stereo not given)
4. O=S1(=O)N=C(Nc2ccc(C(F)(F)F)cc2)c2ccccc21
5. O=S1(=O)N=C(Nc2ccccc2)c2ccccc21
6. O=S1(=O)N=C(Nc2cccc(C(F)(F)F)c2)c2ccccc21

Output:
62
72
127
90
90
102

Task: Please look up its Activity: O=S1(=O)N=C(Oc2cc(C(F)(F)F)cc(C(F)(F)F)c2)c2ccccc21
Output: 124
